B1: GMCL1 (parent)
chain: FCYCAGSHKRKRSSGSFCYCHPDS

variants of: B1; experiment: protein stability index of a GFP-peptide fusion (GPS, HEK-293T) (PSI 1-6); higher = more stable; conditions: c terminus: a fixed tail appended;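 note: lentivirally expressed fusions sorted by FACS into six bins by GFP to DsRed ratio, PSI derived from sequencing read proportions per bin multiplied by bin number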
# maps each entry to its protein stability index
The answer should be written as a number, with no unit following it.

- C18K: 1.95
- S13C: 2.17
- F1V: 3.65
- K11V: 1.39
- K9Y: 2.8
- D23K: 2.42
- R10N: 2.24
- G6K: 1.5
- D23W: 2.16
- H8V: 1.89

Now, please, on to the next variant.
In: What measured protein stability index goes with "G15A" ?
Out: 1.61
